Biological target: T1, ZFP SBS#401 (synthetic)
T1 chain: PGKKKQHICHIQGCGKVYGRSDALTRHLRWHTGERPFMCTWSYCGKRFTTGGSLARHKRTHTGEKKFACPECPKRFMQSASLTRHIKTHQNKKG
Experiment: EMSA
Details: tags: MBP fusion

BINDER	Kd [nM]
GTAGTTGTG (dsDNA) DNA 1: GTAGTTGTG DNA 2: CACAACTAC	80
